- testSystem: Human immunodeficiency virus type 1 reverse transcriptase (Human immunodeficiency virus 1, UniProt Q72547, K103N)
- assayInfo: Inhibition of HIV1 reverse transcriptase p66/p51 K103N mutant
- condition: read-out: IC50
pIC50: −log10 of the molar value.
Each entry below carries its recorded pIC50.

compound | pIC50
Cc1cc(C)cc(S(=O)(=O)c2c(C(=O)NC(C)CC(N)=O)[nH]c3ccc(Cl)cc23)c1 (stereo not given) | 6.54
Cc1cc(C)cc(S(=O)(=O)c2c(C(N)=O)[nH]c3ccc(Cl)c(F)c23)c1 | 8.22
Cc1cc(C)cc(S(=O)(=O)c2c(C(=O)N[C@H](C)CC(N)=O)[nH]c3ccc(Cl)cc23)c1 | 5.85
Cc1cc(C)cc(S(=O)(=O)c2c(C(=O)NC(C)C(N)=O)[nH]c3ccc(Cl)c(F)c23)c1 (stereo not given) | 5.82
Cc1cc(C)cc(S(=O)(=O)c2c(C(=O)NCC(N)=O)[nH]c3ccc(Cl)cc23)c1 | 6.55

###

- Tested on: Sindbis virus
- assayInfo: Antiviral activity against Sindbis virus in african green monkey Vero cells assessed as protection against virus-induced cytopathicity
- Assay type: functional, organism-based
pEC50: −log10 of the molar value.
This listing pairs compounds with measured pEC50.

compound | testSystem | pEC50
Cc1cc(C)cc(S(=O)(=O)c2c(C(=O)NC(C)C(N)=O)[nH]c3ccc(Br)cc23)c1 (stereo not drawn) | Sindbis virus | < 5.40
Cc1cc(C)cc(S(=O)(=O)c2c(C(=O)NCCC(N)=O)[nH]c3ccc([N+](=O)[O-])cc23)c1 | Sindbis virus | < 4.00
Cc1cc(C)cc(S(=O)(=O)c2c(C(=O)NCCC(N)=O)[nH]c3ccc(Cl)c(F)c23)c1 | Sindbis virus | < 4.70
Cc1cc(C)cc(S(=O)(=O)c2c(C(=O)NC(C)CC(N)=O)[nH]c3ccc(Cl)c(F)c23)c1 (stereo not drawn) | Sindbis virus | < 4.70
Cc1cc(C)cc(S(=O)(=O)c2c(C(=O)NCC(N)=O)[nH]c3ccc(Cl)cc23)c1 | Sindbis virus | < 4.00
Cc1cc(C)cc(S(=O)(=O)c2c(C(=O)NNC(C)C)[nH]c3ccc(Cl)cc23)c1 | Sindbis virus | < 4.00
Cc1cc(C)cc(S(=O)(=O)c2c(C(=O)NCC(N)=O)[nH]c3ccc([N+](=O)[O-])cc23)c1 | Sindbis virus | < 4.00
Cc1cc(C)cc(S(=O)(=O)c2c(C(=O)NC(C)CS(N)(=O)=O)[nH]c3ccc(Cl)c(F)c23)c1 (stereo not drawn) | Sindbis virus | 4.70
Cc1cc(C)cc(S(=O)(=O)c2c(C(N)=O)[nH]c3ccc(Cl)c(F)c23)c1 | Sindbis virus | < 4.00
Cc1cc(C)cc(S(=O)(=O)c2c(C(=O)NC(C)CC(N)=O)[nH]c3ccc(Cl)cc23)c1 (stereo not drawn) | Sindbis virus | < 4.70
Cc1cc(C)cc(S(=O)(=O)c2c(C(=O)NCCS(N)(=O)=O)[nH]c3ccc([N+](=O)[O-])cc23)c1 | Sindbis virus | < 4.70
Cc1cc(C)cc(S(=O)(=O)c2c(C(=O)NCC(N)=O)[nH]c3ccc(Br)cc23)c1 | Sindbis virus | < 4.70
Cc1cc(C)cc(S(=O)(=O)c2c(C(=O)NCCC(N)=O)[nH]c3ccc(Cl)cc23)c1 | Sindbis virus | < 4.70
Cc1cc(C)cc(S(=O)(=O)c2c(C(=O)NCCS(N)(=O)=O)[nH]c3ccc(Br)cc23)c1 | Sindbis virus | < 4.70
Cc1cc(C)cc(S(=O)(=O)c2c(C(=O)NCCS(N)(=O)=O)[nH]c3ccc(Cl)c(F)c23)c1 | Sindbis virus | < 4.70
Cc1cc(C)cc(S(=O)(=O)c2c(C(=O)NC(C)CS(N)(=O)=O)[nH]c3ccc(Cl)cc23)c1 (stereo not drawn) | Sindbis virus | < 4.70
Nc1ncnc2c1ncn2C[C@H](O)CO [(S)-DHPA] | Sindbis virus | < 3.60
Cc1cc(C)cc(S(=O)(=O)c2c(C(=O)NC(C)CS(N)(=O)=O)[nH]c3ccc(Br)cc23)c1 (stereo not drawn) | Sindbis virus | < 4.70

###

- testSystem: Human immunodeficiency virus type 1 reverse transcriptase (Human immunodeficiency virus 1, UniProt Q72547)
- assayInfo: Inhibition of HIV1 reverse transcriptase p66/p51
- condition: read-out: IC50
pIC50: −log10 of the molar value.
Decide by pIC50: equal to or exceeding 8 means label 1, less means label 0.

molecule | groupLabel
Cc1cc(C)cc(S(=O)(=O)c2c(C(=O)NC(C)CC(N)=O)[nH]c3ccc(Br)cc23)c1 (stereo not given) | label 0
Cc1cc(C)cc(S(=O)(=O)c2c(C(=O)NC(C)CS(N)(=O)=O)[nH]c3ccc(Br)cc23)c1 (stereo not given) | label 1
Cc1cc(C)cc(S(=O)(=O)c2c(C(=O)NC(C)CS(N)(=O)=O)[nH]c3ccc([N+](=O)[O-])cc23)c1 (stereo not given) | label 0
Cc1cc(C)cc(S(=O)(=O)c2c(C(=O)NC(C)C(N)=O)[nH]c3ccc(Cl)cc23)c1 (stereo not given) | label 0
Cc1cc(C)cc(S(=O)(=O)c2c(C(=O)N[C@@H](C)CC(N)=O)[nH]c3ccc(Cl)cc23)c1 | label 0
Cc1cc(C)cc(S(=O)(=O)c2c(C(=O)NCCS(N)(=O)=O)[nH]c3ccc([N+](=O)[O-])cc23)c1 | label 0
Cc1cc(C)cc(S(=O)(=O)c2c(C(N)=O)[nH]c3ccc(Cl)cc23)c1 | label 1
Cc1cc(C)cc(S(=O)(=O)c2c(C(=O)NCCS(N)(=O)=O)[nH]c3ccc(Cl)cc23)c1 | label 1
Cc1cc(C)cc(S(=O)(=O)c2c(C(=O)NC(C)CC(N)=O)[nH]c3ccc([N+](=O)[O-])cc23)c1 (stereo not given) | label 0
Cc1cc(C)cc(S(=O)(=O)c2c(C(=O)NC(C)CS(N)(=O)=O)[nH]c3ccc(Cl)c(F)c23)c1 (stereo not given) | label 0
Cc1cc(C)cc(S(=O)(=O)c2c(C(=O)NCCC(N)=O)[nH]c3ccc(Cl)cc23)c1 | label 0
Cc1cc(C)cc(S(=O)(=O)c2c(C(=O)NCC(N)=O)[nH]c3ccc(Br)cc23)c1 | label 0
Cc1cc(C)cc(S(=O)(=O)c2c(C(=O)NCC(N)=O)[nH]c3ccc(Cl)c(F)c23)c1 | label 0

###

- assayInfo: Cytotoxicity against feline CRFK cells by MTS assay
- Type: cell-based, Felis catus
- condition: cat
Collected CC50 values appear next to each entry.

compound | CC50
Cc1cc(C)cc(S(=O)(=O)c2c(C(=O)NC(C)CS(N)(=O)=O)[nH]c3ccc([N+](=O)[O-])cc23)c1 (stereo not drawn) | 47.6 µM
Cc1cc(C)cc(S(=O)(=O)c2c(C(=O)NNC(C)C)[nH]c3ccc(Cl)cc23)c1 | > 100 µM
Cc1cc(C)cc(S(=O)(=O)c2c(C(=O)NC(C)C(N)=O)[nH]c3ccc(Cl)cc23)c1 (stereo not drawn) | 39.3 µM
Cc1cc(C)cc(S(=O)(=O)c2c(C(=O)NC(C)C(N)=O)[nH]c3ccc(Cl)c(F)c23)c1 (stereo not drawn) | 51.4 µM
Cc1cc(C)cc(S(=O)(=O)c2c(C(=O)NCCC(N)=O)[nH]c3ccc(Cl)cc23)c1 | 1.7 µM
Cc1cc(C)cc(S(=O)(=O)c2c(C(=O)NCC(N)=O)[nH]c3ccc(Cl)cc23)c1 | > 100 µM
Cc1cc(C)cc(S(=O)(=O)c2c(C(=O)NCCC(N)=O)[nH]c3ccc([N+](=O)[O-])cc23)c1 | > 100 µM
Cc1cc(C)cc(S(=O)(=O)c2c(C(=O)NC(C)CC(N)=O)[nH]c3ccc(Br)cc23)c1 (stereo not drawn) | 11.1 µM
Cc1cc(C)cc(S(=O)(=O)c2c(C(=O)NCCS(N)(=O)=O)[nH]c3ccc(Br)cc23)c1 | 11.9 µM
Cc1cc(C)cc(S(=O)(=O)c2c(C(=O)NC(C)CS(N)(=O)=O)[nH]c3ccc(Cl)c(F)c23)c1 (stereo not drawn) | 15 µM
Cc1cc(C)cc(S(=O)(=O)c2c(C(=O)NCCS(N)(=O)=O)[nH]c3ccc(Cl)c(F)c23)c1 | 34.6 µM
Cc1cc(C)cc(S(=O)(=O)c2c(C(=O)NCC(N)=O)[nH]c3ccc([N+](=O)[O-])cc23)c1 | > 100 µM
Cc1cc(C)cc(S(=O)(=O)c2c(C(=O)NC(C)CC(N)=O)[nH]c3ccc(Cl)c(F)c23)c1 (stereo not drawn) | 42.6 µM
Cc1cc(C)cc(S(=O)(=O)c2c(C(=O)NC(C)C(N)=O)[nH]c3ccc([N+](=O)[O-])cc23)c1 (stereo not drawn) | 82.1 µM
Cc1cc(C)cc(S(=O)(=O)c2c(C(=O)NCC(N)=O)[nH]c3ccc(Br)cc23)c1 | 53 µM
Cc1cc(C)cc(S(=O)(=O)c2c(C(N)=O)[nH]c3ccc(Cl)cc23)c1 | > 100 µM
Cc1cc(C)cc(S(=O)(=O)c2c(C(=O)NC(C)C(N)=O)[nH]c3ccc(Br)cc23)c1 (stereo not drawn) | 9.2 µM
Cc1cc(C)cc(S(=O)(=O)c2c(C(N)=O)[nH]c3ccc(Cl)c(F)c23)c1 | > 100 µM
Cc1cc(C)cc(S(=O)(=O)c2c(C(=O)NCCS(N)(=O)=O)[nH]c3ccc(Cl)cc23)c1 | 8.5 µM
Cc1cc(C)cc(S(=O)(=O)c2c(C(=O)NC(C)CC(N)=O)[nH]c3ccc(Cl)cc23)c1 (stereo not drawn) | 18.9 µM
Nc1nc2c(ncn2COC(CO)CO)c(=O)[nH]1 | > 100 µM
Cc1cc(C)cc(S(=O)(=O)c2c(C(=O)NC(C)CS(N)(=O)=O)[nH]c3ccc(Cl)cc23)c1 (stereo not drawn) | 11.1 µM
Cc1cc(C)cc(S(=O)(=O)c2c(C(=O)NCCS(N)(=O)=O)[nH]c3ccc([N+](=O)[O-])cc23)c1 | > 100 µM
Cc1cc(C)cc(S(=O)(=O)c2c(C(=O)NC(C)CC(N)=O)[nH]c3ccc([N+](=O)[O-])cc23)c1 (stereo not drawn) | 21.1 µM
Cc1cc(C)cc(S(=O)(=O)c2c(C(=O)NCCC(N)=O)[nH]c3ccc(Br)cc23)c1 | 15.6 µM
Cc1cc(C)cc(S(=O)(=O)c2c(C(=O)NCC(N)=O)[nH]c3ccc(Cl)c(F)c23)c1 | 71 µM
Cc1cc(C)cc(S(=O)(=O)c2c(C(=O)NCCC(N)=O)[nH]c3ccc(Cl)c(F)c23)c1 | 45.3 µM
Cc1cc(C)cc(S(=O)(=O)c2c(C(=O)NC(C)CS(N)(=O)=O)[nH]c3ccc(Br)cc23)c1 (stereo not drawn) | 53 µM

The values you see were collected from ChEMBL document CHEMBL1153955.
